This collection of values is drawn from patent US9562053B2.

Target: long form of human GPR120 (Homo sapiens)
Sequence (Q5NUL3 1-377 isoform Q5NUL3-1): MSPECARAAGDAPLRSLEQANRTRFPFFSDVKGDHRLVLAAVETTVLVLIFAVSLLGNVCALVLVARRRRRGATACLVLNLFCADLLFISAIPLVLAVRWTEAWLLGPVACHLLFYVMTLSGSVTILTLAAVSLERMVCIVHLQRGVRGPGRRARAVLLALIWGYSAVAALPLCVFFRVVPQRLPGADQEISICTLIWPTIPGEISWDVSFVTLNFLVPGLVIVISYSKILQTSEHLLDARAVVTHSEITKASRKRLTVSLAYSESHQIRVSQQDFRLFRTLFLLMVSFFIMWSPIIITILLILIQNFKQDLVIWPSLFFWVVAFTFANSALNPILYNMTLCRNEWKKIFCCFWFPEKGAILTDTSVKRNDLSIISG
Test: Human GPR120 DiscoveRx PathHunter Beta-Arrestin Assay, Procedure β-arrestin A (3000 cells per well)
Conditions: read-out: GPR120 B-arrestin A EC50
pEC50: −log10 of the molar value.
Collected pEC50 values appear next to each entry.

compound	pEC50
Cc1cc2cc(Cl)c(C)c(COc3c(F)cc(CCC(=O)O)cc3F)c2o1	6.34
Cc1cc2cc(Cl)c(C)c(COc3ccc(CCC(=O)O)c(C)c3C)c2o1	6.62
Cc1cc2c(F)c(OC(F)(F)F)c(F)c(COc3ccc(CCC(=O)O)c(C)c3C)c2o1	7.35
CCCc1cc2cc(Cl)cc(COc3ccc(CCC(=O)O)c(C)c3C#N)c2o1	6.20
Cc1c(CCC(=O)O)ccc(OCc2cc(OC(F)(F)F)cc3cc(C=CF)oc23)c1C (mixture of isomers)	6.77
CCCc1cc2cc(C(F)(F)F)cc(COc3ccc(CCC(=O)O)c(C)c3C)c2o1	6.57
CCCc1cc2cc(C(C)(F)F)cc(COc3ccc(CCC(=O)O)c(C)c3C)c2o1	5.65
CCc1cc2cc(Cl)c(OC)c(COc3ccc(CCC(=O)O)c(C)c3C)c2o1	6.64

* * *

Collected EC50 values appear next to each entry.
target: long form of human GPR120 (Homo sapiens, UniProt Q5NUL3); assay: Human GPR120 DiscoveRx PathHunter Beta-Arrestin Assay, Procedure β-arrestin A (3000 cells per well); details: read-out: GPR120 B-arrestin A EC50
value kind: EC50 (µM)

smiles input	unit	reported
Cc1oc2c(COc3ccc(CCC(=O)O)c(C)c3C)cc(F)cc2c1F	µM	0.949
CCc1cc2cc(Br)cc(COc3ccc(CCC(=O)O)c(C)c3C)c2o1	µM	0.095
Cc1cc2cc3c(c(COc4ccc(CCC(=O)O)c(C)c4C)c2o1)OCO3	µM	0.851
Cc1c(CCC(=O)O)ccc(OCc2cc(F)cc3cc(C(F)(F)F)oc23)c1C	µM	5.21
CCc1cc2cc(Cl)cc(COc3ccc(CCC(=O)O)c(C)c3C)c2o1	µM	0.283

* * *

Target: short form of the GPR120 receptor (Homo sapiens, UniProt Q5NUL3)
Sequence (Q5NUL3 1-361): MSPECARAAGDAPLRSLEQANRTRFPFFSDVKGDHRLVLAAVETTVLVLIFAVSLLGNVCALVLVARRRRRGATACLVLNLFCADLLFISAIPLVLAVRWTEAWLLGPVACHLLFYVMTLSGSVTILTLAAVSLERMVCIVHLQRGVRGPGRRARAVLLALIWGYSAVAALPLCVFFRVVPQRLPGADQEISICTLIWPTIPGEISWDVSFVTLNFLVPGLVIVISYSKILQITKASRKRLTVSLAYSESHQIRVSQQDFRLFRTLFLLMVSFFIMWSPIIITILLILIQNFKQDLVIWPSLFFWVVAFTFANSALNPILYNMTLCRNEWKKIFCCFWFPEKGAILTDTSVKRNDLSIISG
Test: Human GPR120 DiscoveRx PathHunter Beta-Arrestin Assay, Procedure β-arrestin B (5000 cells/well)
pEC50: −log10 of the molar value.

smiles input	pEC50
CCc1cc2cc(Cl)cc(COc3ccc(CCC(=O)O)c4c3CCC4)c2o1	6.82
Cc1c(CCC(=O)O)ccc(OCc2cc(F)cc3sc(C(C)C)nc23)c1C	6.52
Cc1cc2cc(OC(F)(F)F)cc(COc3ccc(CCC(=O)O)c(C(F)(F)F)c3)c2o1	6.96
Cc1c(CCC(=O)O)ccc(OCc2cc(F)cc3sc(C(F)(F)F)nc23)c1C	6.17
CCc1cc2cc(Cl)cc(COc3ccc(CCC(=O)O)c(C)c3C)c2o1	7.03
Cc1c(CCC(=O)O)ccc(OCc2cc(Cl)cc3sc(C(F)(F)F)nc23)c1C	5.84
Cc1c(CCC(=O)O)ccc(OCc2cc(F)cc3sc(CC(C)C)nc23)c1C	6.11
Cc1nc2cc(Cl)cc(COc3ccc(CCC(=O)O)c(C)c3C)c2s1	5.93
Cc1nc2c(COc3ccc(CCC(=O)O)c(C)c3C)cc(OC(F)(F)F)cc2s1	6.63
Cc1c(CCC(=O)O)ccc(OCc2cc(F)cc3sc(C(C)(C)C)nc23)c1C	5.41
Cc1c(CCC(=O)O)ccc(OCc2cc(Cl)cc3sc(CC(C)C)nc23)c1C	5.48
CCc1nc2c(COc3ccc(CCC(=O)O)c(C)c3C)cc(F)cc2s1	6.40
Cc1c(CCC(=O)O)ccc(OCc2cc(Cl)cc3sc(C(C)(C)C)nc23)c1C	5.81
Cc1c(CCC(=O)O)ccc(OCc2cc(Cl)cc3sc(C(C)C)nc23)c1C	6.05
CCc1cc2cc(OC(F)(F)F)cc(COc3ccc(CCC(=O)O)c(C)c3C)c2o1	7.15
Cc1cc2cc(OC(F)(F)F)cc(COc3ccc(CCC(=O)O)c(C)c3C)c2o1	7.16
CCc1cc2ccc(OC(F)F)c(COc3ccc(CCC(=O)O)c(C)c3C)c2o1	5.89
CCc1nc2c(COc3ccc(CCC(=O)O)c(C)c3C)cc(Cl)cc2s1	6.72

* * *

molecular target: Human GPR120 short form (Homo sapiens, UniProt Q5NUL3); construct: expressed in transfected cells; assay: Human GPR120 in Calcium Flux Assay, Procedure Calcium A (2500 cells/well); assay type: cell-based
pEC50: −log10 of the molar value.
Collected pEC50 values appear next to each entry.

compound	pEC50
CCc1cc2cc(Cl)cc(COc3ccc(CCC(=O)O)c(C)c3C)c2o1 [Compound 11]	7.64
CCc1cc2cc(Cl)c(OCC(F)(F)F)c(COc3ccc(CCC(=O)O)c(C)c3C)c2o1 [Compound 64]	7.25
CCCc1cc2cc(C(F)(F)F)cc(COc3ccc(CCC(=O)O)c(C)c3C)c2o1 [Compound 37]	7.37
CCCc1cc2cc(I)cc(COc3ccc(CCC(=O)O)c(C)c3C)c2o1 [Compound 47]	7.66
Cc1c(CCC(=O)O)ccc(OCc2cc(Cl)cc3sc(C(C)(C)C)nc23)c1C [Compound 104]	5.73
Cc1cc2cc(Cl)cc(COc3c(F)cc(CCC(=O)O)cc3F)c2s1 [Compound 92]	6.38
Cc1c(CCC(=O)O)ccc(OCc2cc(F)cc3cc(CC4CCCC4)oc23)c1C [Compound 19]	5.77
CCc1nc2c(COc3ccc(CCC(=O)O)c(C)c3C)cc(F)cc2s1 [Compound 105]	6.69
CCc1cc2cc(Cl)c(C)c(COc3ccc(CCC(=O)O)c(C)c3C)c2o1 [Compound 40]	7.47
Cc1c(CCC(=O)O)ccc(OCc2cc(Cl)cc3cn(C)nc23)c1C [Compound 8]	6.53

* * *

target: Human GPR120 short form (Homo sapiens); construct: expressed in transfected cells; assay: Human GPR120 in Calcium Flux Assay, Procedure Calcium A (2500 cells/well); assay type: cell-based
value kind: log10(EC50) (log10 of the value in nM)

molecule	value kind	reported
CCCc1cc2cc(Cl)cc(COc3ccc(CCC(=O)O)c(F)c3F)c2o1 [Compound 59]	log10(EC50)	1.97
CCc1cc2cc(Cl)c(OCCOC)c(COc3ccc(CCC(=O)O)c(C)c3C)c2o1 [Compound 63]	log10(EC50)	1.83
Cc1nc2cc(Cl)cc(COc3ccc(CCC(=O)O)c(C)c3C)c2s1 [Compound 121]	log10(EC50)	2.58
Cc1cc2cc(OC(F)(F)F)cc(COc3ccc(CCC(=O)O)c(C)c3C)c2o1 [Compound 36]	log10(EC50)	1.00
CCCc1cc(OCc2cc(OC(F)(F)F)cc3cc(CC)oc23)c(F)cc1CCC(=O)O [Compound 50]	log10(EC50)	1.77
Cc1cc2cc(Cl)cc(COc3ccc(CCC(=O)O)c(C)c3C)c2s1 [Compound 91]	log10(EC50)	3.28
C#Cc1cc(COc2ccc(CCC(=O)O)c(C)c2C)c2oc(CCC)cc2c1 [Compound 38]	log10(EC50)	1.45
Cc1c(CCC(=O)O)ccc(OCc2cc(F)cc3sc(C(F)(F)F)nc23)c1C [Compound 117]	log10(EC50)	2.63
Cc1oc2cc(Cl)cc(COc3ccc(CCC(=O)O)c(C)c3C)c2c1C [Compound 80]	log10(EC50)	2.18
